Listing: binding signal of selected sequences
Target: GST-Nv-NF-kB (Ser allele) (Nematostella vectensis, UniProt A7UNT2 2-411)
Sequence: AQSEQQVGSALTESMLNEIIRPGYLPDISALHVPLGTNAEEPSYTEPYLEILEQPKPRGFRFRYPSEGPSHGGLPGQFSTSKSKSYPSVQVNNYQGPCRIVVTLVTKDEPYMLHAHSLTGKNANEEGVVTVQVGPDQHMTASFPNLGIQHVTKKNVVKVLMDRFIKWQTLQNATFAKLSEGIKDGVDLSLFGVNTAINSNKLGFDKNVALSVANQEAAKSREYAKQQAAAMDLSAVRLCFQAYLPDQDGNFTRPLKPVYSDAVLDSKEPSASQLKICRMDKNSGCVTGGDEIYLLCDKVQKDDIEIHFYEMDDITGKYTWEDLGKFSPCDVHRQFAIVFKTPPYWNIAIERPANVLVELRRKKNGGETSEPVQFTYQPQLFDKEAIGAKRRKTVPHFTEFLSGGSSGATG
Assay: protein-binding microarray (PBM); PBM: ~300 nM protein, 6 mM HEPES pH 7.8, 80 mM KCl, 0.5 mM EDTA, 0.5 mM EGTA, 6% glycerol, 35 ng/ul poly-dIdC, 1% milk, 1 h, room temperature; Ap Aiptasia and Nv Nematostella (sea anemones) / Co Capsaspora / Aq Amphimedon (sponge) / Dm Drosophila / Hu human; RHD is the Rel homology domain; high values mean tight binding
Conditions: dsDNA, one strand shown
RECORDED METRIC: binding signal (z-score)

| SEQUENCE CHAIN | RECORDED METRIC | MEASURED RESULT |
| --- | --- | --- |
| CCGATTAACATCAGGGAATATAATGATGTTAATCGGGTCTTGATTCGCTTGACGCTGCTG | binding signal | 3.88 |
| CCGATTAACATCACGGGATTTCCTGATGTTAATCGGGTCTTGATTCGCTTGACGCTGCTG | binding signal | 3.47 |
| CCGATTAACATCAGAACTTTCCCTGATGTTAATCGGGTCTTGATTCGCTTGACGCTGCTG | binding signal | 5.58 |
| CCGATTAACATCAGGGTGTTTTATGATGTTAATCGGGTCTTGATTCGCTTGACGCTGCTG | binding signal | 2.32 |
| CCGATTAACATCAAAACAGTCCCTGATGTTAATCGGGTCTTGATTCGCTTGACGCTGCTG | binding signal | 4.68 |
| CCGATTAACATCAAAAATCCCTATGATGTTAATCGGGTCTTGATTCGCTTGACGCTGCTG | binding signal | 4.2 |
| CCGATTAACATCAGGCATTCCCATGATGTTAATCGGGTCTTGATTCGCTTGACGCTGCTG | binding signal | 1.11 |
| CCGATTAACATCAAGTTTTCCCATGATGTTAATCGGGTCTTGATTCGCTTGACGCTGCTG | binding signal | 5.18 |
| CCGATTAACATCACAATACCCCCTGATGTTAATCGGGTCTTGATTCGCTTGACGCTGCTG | binding signal | 5.97 |
| CCGATTAACATCAGGAATAACCCTGATGTTAATCGGGTCTTGATTCGCTTGACGCTGCTG | binding signal | 1.44 |
| CCGATTAACATCAAATCTTTCCCTGATGTTAATCGGGTCTTGATTCGCTTGACGCTGCTG | binding signal | 6.25 |
| CCGATTAACATCAACGCCCCCCCTGATGTTAATCGGGTCTTGATTCGCTTGACGCTGCTG | binding signal | 4.55 |
| CCGATTAACATCAGACCCCCCCCTGATGTTAATCGGGTCTTGATTCGCTTGACGCTGCTG | binding signal | 3.56 |
| CCGATTAACATCAGGCCTCCCCCTGATGTTAATCGGGTCTTGATTCGCTTGACGCTGCTG | binding signal | 4.46 |
| CCGATTAACATCAGGAACTACCCTGATGTTAATCGGGTCTTGATTCGCTTGACGCTGCTG | binding signal | 2.02 |
| CCGATTAACATCAGGGGTTTTGATGATGTTAATCGGGTCTTGATTCGCTTGACGCTGCTG | binding signal | 3.32 |
| CCGATTAACATCAGGGGACACCCTGATGTTAATCGGGTCTTGATTCGCTTGACGCTGCTG | binding signal | 3.12 |
| CCGATTAACATCACGGGAATGCCTGATGTTAATCGGGTCTTGATTCGCTTGACGCTGCTG | binding signal | 1.33 |
| CCGATTAACATCAAATTCCCAGTTGATGTTAATCGGGTCTTGATTCGCTTGACGCTGCTG | binding signal | 3.92 |
| CCGATTAACATCAGGGAAAGGAATGATGTTAATCGGGTCTTGATTCGCTTGACGCTGCTG | binding signal | 2.07 |
| CCGATTAACATCACACACCCCCCTGATGTTAATCGGGTCTTGATTCGCTTGACGCTGCTG | binding signal | 3.65 |
| CCGATTAACATCAGAAATACCCATGATGTTAATCGGGTCTTGATTCGCTTGACGCTGCTG | binding signal | 4.71 |
